- testTarget: Rev34-50 peptide I (free N- and C-termini) (HIV-1)
- testMethodNotes: EMSA; apparent nonspecific Kd with tRNA, 4 C
- testConditions: protein: synthetic; tags: synthetic peptide, unmodified termini; label: 32P; stem-loop with internal bulge
pKd: −log10 of the molar value.
attributeMeasured: pKd

INSERT INTO assay_data (binder, measurement) VALUES
  ('GGCUGGUAUCGGCGCAGCGUCAAUGACGCUGACGGUAGAGGCCAGCC (ssRNA, [10,38]) [RRE IIB C46-G74 mutant]', 5.52);
